Answer each item with its documented Plant response rating, Foxtail, Green.
Test system: green foxtail (Setaria viridis)
Assay: Test B pre-/postemergence plant response
Assay type: in vivo
Details: Postemergence, 31 g ai/ha; 0 to 100 scale (0 no effect, 100 complete control)
Description: […] Treated plants and controls were maintained in a greenhouse for 13 to 15 days, after which time all treated plants were visually evaluated and compared to controls. […]
One number for each entry.

{"molecule": "CCn1c(-c2ccccc2)ncc(C(=O)C2=C(O)C3CCC(C3)C2=O)c1=O (centres unmarked)", "assay-system": "green foxtail (Setaria viridis)", "Plant response rating, Foxtail, Green": 80}

Respectfully, I request Plant response rating, Foxtail, Green for each entry included below.
1. Cc1ccccc1-n1c(-c2cc(F)cc(F)c2)ncc(C(=O)C2=C(O)CCCC2=O)c1=O
2. Cc1cc(-n2c(-c3cccc(F)c3)ncc(C(=O)C3=C(O)CCCC3=O)c2=O)ccc1F
3. CCCn1c(-c2cccc(C(F)(F)F)c2)ncc(C(=O)C2=C(O)CCCC2=O)c1=O
4. O=C(C1=C(O)C2CCC(C2)C1=O)c1cnc(-c2ccsc2)n(CC2CCCO2)c1=O (centres unmarked)

Key:
1. 85
2. 40
3. 25
4. 40

----------
test system: pigweed (Amaranthus retroflexus); assay: Test A pre-/postemergence plant response; assay type: in vivo; conditions: Preemergence, 125 g ai/ha; 0 to 100 scale, 0 = no effect, 100 = complete control
Friendly reminder: Plant response rating, Pigweed below 90 is Yes, at or above is No.

Use the examples below as a reference point.
{"compound": "CCCn1c(-c2ccsc2)ncc(C(=O)C2=C(O)C3CCC(C3)C2=O)c1=O (stereo not drawn)", "class-assignment": "Yes"}
{"compound": "CCCn1c(-c2cccs2)ncc(C(=O)c2cnn(CC)c2O)c1=O", "class-assignment": "Yes"}
{"compound": "Cc1cc(-n2c(-c3cccc(F)c3)ncc(C(=O)C3=C(O)CCCC3=O)c2=O)ccc1F", "class-assignment": "Yes"}
{"compound": "CCc1ccc(-n2c(-c3cc(F)cc(F)c3)ncc(C(=O)C3=C(O)CCCC3=O)c2=O)cc1", "class-assignment": "No"}

Exercise: Could you please tell me whether Plant response rating, Pigweed recorded for `CCCn1c(-c2cccc(Cl)c2)ncc(C(=O)C2=C(O)CCCC2=O)c1=O` is less than 90?
Key: Yes

----------
system: morningglory (Ipomoea spp.); assay: Test A pre-/postemergence plant response; type: in vivo; conditions: Preemergence, 500 g ai/ha; visual injury, 0 to 100 scale (0 no effect, 100 complete control), approx. ten days
assay-endpoint: Plant response rating, Morningglory
Answers are plain numbers.

Examples with their reported Plant response rating, Morningglory follow.
{"molecular-string": "Cc1ccc(F)cc1-n1c(-c2ccccc2)ncc(C(=O)C2=C(O)CCCC2=O)c1=O", "Plant response rating, Morningglory": 70}
{"molecular-string": "C=CCn1c(-c2ccccc2)ncc(C(=O)C2=C(O)CCCC2=O)c1=O", "Plant response rating, Morningglory": 70}
{"molecular-string": "CCCn1c(-c2cccs2)ncc(C(=O)C2=C(O)CCCC2=O)c1=O", "Plant response rating, Morningglory": 70}

Respectfully, I request Plant response rating, Morningglory for each entry included below.
1. CCCCc1ncc(C(=O)C2=C(O)CCCC2=O)c(=O)n1-c1cccc(C)c1
2. O=C1CCCC(O)=C1C(=O)c1cnc(-c2ccccc2)n(-c2cccc(Br)c2)c1=O
3. COCCCn1c(-c2cccc(C)c2)ncc(C(=O)C2=C(O)CCCC2=O)c1=O
4. Cc1ccccc1-n1c(-c2cccc(Cl)c2)ncc(C(=O)C2=C(O)CCCC2=O)c1=O
5. O=C1CCCC(O)=C1C(=O)c1cnc(-c2ccccc2)n(C2CCCC2)c1=O
6. Cn1c(-c2ccccc2)ncc(C(=O)C2=C(O)CCCC2=O)c1=O

Key:
1. 70
2. 70
3. 70
4. 30
5. 80
6. 60

Exercise: Given `CCCCn1c(-c2cccc(C)c2)ncc(C(=O)C2=C(O)CCCC2=O)c1=O` , state its recorded Plant response rating, Morningglory.
Key: 40

----------
test system: morningglory (Ipomoea spp.); assay: Test A pre-/postemergence plant response; type: in vivo; settings: Preemergence, 125 g ai/ha; 0 to 100 scale, 0 = no effect, 100 = complete control
assay-endpoint: Plant response rating, Morningglory
Give bare numbers.

{"molecular-string": "CCCc1ncc(C(=O)C2=C(O)CCCC2=O)c(=O)n1-c1ccccc1C", "Plant response rating, Morningglory": 10}
{"molecular-string": "Cc1ccc(C)c(-n2c(-c3ccccc3)ncc(C(=O)c3cnoc3C3CC3)c2=O)c1", "Plant response rating, Morningglory": 0}
{"molecular-string": "CCCn1c(-c2cccs2)ncc(C(=O)c2cnn(CC)c2O)c1=O", "Plant response rating, Morningglory": 0}
{"molecular-string": "CCCCn1c(-c2cccc(Br)c2)ncc(C(=O)C2=C(O)CCCC2=O)c1=O", "Plant response rating, Morningglory": 0}

Exercise: Given `O=C1CCCC(O)=C1C(=O)c1cnc(-c2ccccc2)n(-c2ccccc2F)c1=O` , state its recorded Plant response rating, Morningglory.
Key: 10

----------
Answer each item with its documented Plant response rating, Corn.
tested on: corn (Zea mays); assay: Test A pre-/postemergence plant response; assay type: in vivo; settings: Postemergence, 125 g ai/ha; 0 to 100 scale where 0 is no effect and 100 is complete control
Numbers only.

{"compound": "O=C1CCCC(O)=C1C(=O)c1cnc(-c2cccc(Cl)c2)n(CC2CCCO2)c1=O (stereo not shown)", "Plant response rating, Corn": 0}

Respectfully, I request Plant response rating, Corn for each entry included below.
1. Cc1ccc(-c2ncc(C(=O)C3=C(O)CCCC3=O)c(=O)n2-c2ccccc2)cc1
2. C=CCCn1c(-c2ccccc2)ncc(C(=O)C2=C(O)CCCC2=O)c1=O
3. O=C(C1=C(O)C2CCC(C2)C1=O)c1cnc(-c2ccccc2)n(C2CCCCC2)c1=O (stereo not shown)

Key:
[0, 0, 0]

Respectfully, I request Plant response rating, Corn for each entry included below.
1. CCc1ccc(-n2c(-c3ccccc3)ncc(C(=O)C3=C(O)CCCC3=O)c2=O)cc1
2. CCCCn1c(-c2ccccc2)ncc(C(=O)C2=C(O)CCCC2=O)c1=O
3. CCCc1ncc(C(=O)C2=C(O)CCCC2=O)c(=O)n1-c1ccccc1C
4. CCCn1c(-c2ccsc2)ncc(C(=O)C2=C(O)C3CCC(C3)C2=O)c1=O (stereo not shown)
5. Cc1ccccc1-n1c(-c2cc(F)cc(F)c2)ncc(C(=O)C2=C(O)CCCC2=O)c1=O
6. Cc1cc(-n2c(-c3cccc(Cl)c3)ncc(C(=O)C3=C(O)CCCC3=O)c2=O)ccc1F

Key:
[0, 0, 30, 10, 0, 10]

----------
Answer each item with its documented Plant response rating, Crabgrass, Large.
tested on: large crabgrass (Digitaria sanguinalis); assay: Test A pre-/postemergence plant response; format: in vivo; settings: Postemergence, 125 g ai/ha; 0 to 100 scale where 0 is no effect and 100 is complete control
One number for each entry.

{"compound": "CCCn1c(-c2ccsc2)ncc(C(=O)C2=C(O)C3CCC(C3)C2=O)c1=O (stereo not shown)", "Plant response rating, Crabgrass, Large": 90}
{"compound": "COc1ccc(-n2c(-c3cccc(F)c3)ncc(C(=O)C3=C(O)CCCC3=O)c2=O)cc1", "Plant response rating, Crabgrass, Large": 30}
{"compound": "CCn1c(-c2cccc(Cl)c2)ncc(C(=O)C2=C(O)CCCC2=O)c1=O", "Plant response rating, Crabgrass, Large": 70}

Respectfully, I request Plant response rating, Crabgrass, Large for each entry included below.
1. CCCCn1c(-c2cccc(Cl)c2)ncc(C(=O)C2=C(O)CCCC2=O)c1=O
2. CC(C)n1c(-c2ccccc2)ncc(C(=O)C2=C(O)CCCC2=O)c1=O
3. O=C(C1=C(O)C2CCC(C2)C1=O)c1cnc(-c2ccsc2)n(CC2CCCO2)c1=O (stereo not shown)
4. CCc1ccc(-n2c(-c3cccc(Br)c3)ncc(C(=O)C3=C(O)CCCC3=O)c2=O)cc1

Key:
1. 80
2. 90
3. 80
4. 30

----------
test system: ducksalad (Heteranthera limosa); assay: Test B flooded paddy test; format: in vivo; conditions: Flood (flooded paddy test), 62 g ai/ha; scale of 0 to 100 where 0 is no effect and 100 is complete control; 13 to 15 days
assay-endpoint: Plant response rating, Ducksalad
Answers are plain numbers.

Examples with their reported Plant response rating, Ducksalad follow.
{"molecule": "COCCn1c(-c2cccc(Cl)c2)ncc(C(=O)C2=C(O)CCCC2=O)c1=O", "Plant response rating, Ducksalad": 60}
{"molecule": "Cc1ccc(Cl)cc1-n1c(-c2cccc(Br)c2)ncc(C(=O)C2=C(O)CCCC2=O)c1=O", "Plant response rating, Ducksalad": 60}
{"molecule": "CCCn1c(-c2ccco2)ncc(C(=O)C2=C(O)CCCC2=O)c1=O", "Plant response rating, Ducksalad": 40}
{"molecule": "O=C1CCCC(O)=C1C(=O)c1cnc(-c2ccccc2)n(C2CCCC2)c1=O", "Plant response rating, Ducksalad": 40}
{"molecule": "O=C(C1=C(O)C2CCC(C2)C1=O)c1cnc(-c2ccccc2)n(C2CCCCCC2)c1=O (centres unmarked)", "Plant response rating, Ducksalad": 75}
{"molecule": "CC(C)CC(=O)OC1=C(C(=O)c2cnc(-c3ccccc3)n(-c3ccccc3)c2=O)C(=O)CCC1", "Plant response rating, Ducksalad": 30}

Respectfully, I request Plant response rating, Ducksalad for each entry included below.
1. O=C1CCCC(O)=C1C(=O)c1cnc(-c2cccc(F)c2)n(-c2ccccc2)c1=O
2. O=C1CCCC(O)=C1C(=O)c1cnc(-c2cc(F)cc(F)c2)n(-c2ccccc2)c1=O
3. CCCCCc1ncc(C(=O)C2=C(O)CCCC2=O)c(=O)n1-c1ccccc1
4. Cc1ccccc1-c1ncc(C(=O)C2=C(O)CCCC2=O)c(=O)n1-c1ccccc1

Key:
1: 85; 2: 0; 3: 0; 4: 0

Exercise: Given `CCn1c(-c2cccc(C)c2)ncc(C(=O)C2=C(O)CCCC2=O)c1=O` , state its recorded Plant response rating, Ducksalad.
Key: 85
